# Assay remarks: in vitro
# Applied conditions: human
Test readout: CC50

Consider CC(C)(C)[C@H](NC(=O)C(F)(F)F)C(=O)N1C[C@H]2[C@@H]([C@H]1C(=O)N[C@H](C#N)C[C@@H]1CCNC1=O)C2(C)C [Nirmatrelvir] . Its measured CC50 is > 100 µM

---

# Assay remarks: in vitro
# Applied conditions: African green monkey
Test readout: CC50 at 3 days (µM)
Answers are plain numbers, in µM.

INSERT INTO measurements (molecule, result) VALUES
  ('O=c1c2ccccc2[se]n1-c1ccccc1', 22.4);

Consider CC(C)C(=O)OCC(=O)[C@@]12O[C@H](C3CCCCC3)O[C@@H]1C[C@H]1[C@@H]3CCC4=CC(=O)C=C[C@]4(C)[C@H]3[C@@H](O)C[C@@]12C [Ciclesonide] . Its measured CC50 at 3 days is 33.9

Where these numbers come from: paper PMC11053489
